Target: Bile acid receptor (Homo sapiens)
Sequence (whole entry): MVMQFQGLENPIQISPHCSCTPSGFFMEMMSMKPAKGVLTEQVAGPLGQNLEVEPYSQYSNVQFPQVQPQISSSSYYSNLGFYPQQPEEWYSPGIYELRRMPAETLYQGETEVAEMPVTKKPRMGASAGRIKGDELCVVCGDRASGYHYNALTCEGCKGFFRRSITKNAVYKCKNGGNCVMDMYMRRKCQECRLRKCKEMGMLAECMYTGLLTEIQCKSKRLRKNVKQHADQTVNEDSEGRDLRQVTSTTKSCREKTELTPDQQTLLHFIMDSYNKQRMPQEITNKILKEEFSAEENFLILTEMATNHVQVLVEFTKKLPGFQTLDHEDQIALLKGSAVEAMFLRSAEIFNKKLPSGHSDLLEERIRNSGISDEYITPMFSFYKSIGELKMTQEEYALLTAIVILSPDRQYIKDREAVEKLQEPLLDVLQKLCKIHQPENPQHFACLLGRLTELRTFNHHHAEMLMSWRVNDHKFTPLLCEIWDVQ
Assay: Agonist activity at GAL4-fused human FXR LBD expressed in human HepG2 cells up to 2 uM after 20 hrs by luciferase reporter gene assay
Assay type: cell-based
The source made the active and inactive calls. The calls are words filed in the database; no cut-off is given here.
VALUE KIND: Activity

In [3]: df
Out[3]:
                                   compound                        test_target  data_value
0  CCC(CC)(c1ccc(OCc2coc(-c3ccccc3)n2)cc1)c1ccc(OC(C)C(=O)O)cc1 (stereo not given)  Bile acid receptor (Homo sapiens)    inactive
1  C[C@H](Oc1ccc(Cc2ccc(OCc3coc(-c4ccccc4)n3)cc2)cc1)C(=O)O  Bile acid receptor (Homo sapiens)    inactive
2  CCC(CC)(c1ccc(OCc2nc(-c3ccccc3)oc2C)cc1)c1ccc(OC(C)C(=O)O)cc1 (stereo not given)  Bile acid receptor (Homo sapiens)    inactive
3  C[C@@H](Oc1ccc(Cc2ccc(OCc3coc(-c4ccccc4)n3)cc2)cc1)C(=O)O  Bile acid receptor (Homo sapiens)    inactive
4  CC(Oc1ccc(Cc2ccc(OCc3coc(-c4ccccc4)n3)cc2)cc1)C(=O)O (stereo not given)  Bile acid receptor (Homo sapiens)    inactive

---

molecular target: Peroxisome proliferator-activated receptor gamma (Homo sapiens); experiment: Binding affinity to PPARgamma (unknown origin) assessed as thermodynamic dissociation constant by SPR assay; details: read-out: Kd
Overview of reported Kd across a group of molecules:
VALUE KIND: Kd

In [3]: df
Out[3]:
                    structure_smiles_string  data_value
0  C[C@H](Oc1ccc(Cc2ccc(OCc3coc(-c4ccccc4)n3)cc2)cc1)C(=O)O      4.9 nM
1  C[C@@H](Oc1ccc(Cc2ccc(OCc3coc(-c4ccccc4)n3)cc2)cc1)C(=O)O      3.7 nM

---

molecular target: Peroxisome proliferator-activated receptor alpha (Homo sapiens, UniProt Q07869); experiment: Binding affinity to PPARalpha (unknown origin) assessed as kinetic dissociation constant by SPR assay
Sequence (Q07869 whole entry, the tested form may be a part): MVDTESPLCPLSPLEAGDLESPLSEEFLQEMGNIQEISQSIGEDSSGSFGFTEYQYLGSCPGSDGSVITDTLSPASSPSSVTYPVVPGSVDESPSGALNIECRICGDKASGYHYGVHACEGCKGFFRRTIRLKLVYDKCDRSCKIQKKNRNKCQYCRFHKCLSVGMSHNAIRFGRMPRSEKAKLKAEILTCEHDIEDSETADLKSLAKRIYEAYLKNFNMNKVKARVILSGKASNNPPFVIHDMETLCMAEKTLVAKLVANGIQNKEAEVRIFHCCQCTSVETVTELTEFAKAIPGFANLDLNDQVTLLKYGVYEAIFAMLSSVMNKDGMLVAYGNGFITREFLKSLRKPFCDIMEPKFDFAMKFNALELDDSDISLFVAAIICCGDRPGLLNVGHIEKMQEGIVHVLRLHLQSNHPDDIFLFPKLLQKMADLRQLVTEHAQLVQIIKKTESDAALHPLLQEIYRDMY
Known Kd of a selection of molecules
VALUE KIND: Kd (s⁻¹)

>>> df
                    structure_smiles_string  data_value
0  C[C@@H](Oc1ccc(Cc2ccc(OCc3coc(-c4ccccc4)n3)cc2)cc1)C(=O)O       0.025
1  C[C@H](Oc1ccc(Cc2ccc(OCc3coc(-c4ccccc4)n3)cc2)cc1)C(=O)O       0.016

---

biological target: Peroxisome proliferator-activated receptor delta (Homo sapiens); experiment: Transactivation of GAL4-fused human PPARdelta LBD expressed in human HepG2 cells after 20 hrs by luciferase reporter gene assay
Sequence (Q03181 whole entry, the tested form may be a part): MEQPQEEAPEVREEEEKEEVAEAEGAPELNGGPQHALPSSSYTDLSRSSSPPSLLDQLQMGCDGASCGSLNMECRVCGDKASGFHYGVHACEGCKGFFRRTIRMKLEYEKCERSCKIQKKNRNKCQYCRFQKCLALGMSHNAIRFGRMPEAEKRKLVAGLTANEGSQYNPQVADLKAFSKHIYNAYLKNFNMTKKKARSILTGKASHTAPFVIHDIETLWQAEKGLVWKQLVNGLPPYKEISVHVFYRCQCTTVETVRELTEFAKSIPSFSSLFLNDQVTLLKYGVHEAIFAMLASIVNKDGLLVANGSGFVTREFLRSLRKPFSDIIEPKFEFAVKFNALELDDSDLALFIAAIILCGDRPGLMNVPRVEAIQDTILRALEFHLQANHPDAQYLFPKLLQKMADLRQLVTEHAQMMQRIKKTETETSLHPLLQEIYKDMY
VALUE KIND: EC50

                    structure_smiles_string  value_kind  data_value
0  CCCc1c(OCCCOc2ccc(OCC(=O)O)cc2)ccc(C(C)=O)c1O        EC50     0.02 µM

---

test system: HepG2; assay: Cytotoxicity against human HepG2 cells at >2 uM; format: cell-based
VALUE KIND: Activity

>>> print(df.to_string())
                                   molecule  value_kind  data_value
0  CCC(CC)(c1ccc(OCc2nc(-c3c(Cl)cccc3Cl)oc2C)cc1)c1ccc(OC(C)C(=O)O)cc1 (stereo unspecified)    Activity       Toxic
1  CCC(CC)(c1ccc(OCc2nc(-c3ccccc3)oc2C)cc1)c1ccc(OC(C)C(=O)O)cc1 (stereo unspecified)    Activity       Toxic
2  CC(Oc1ccc(Cc2ccc(OCc3coc(-c4ccccc4)n3)cc2)cc1)C(=O)O (stereo unspecified)    Activity       Toxic
3  Cc1oc(-c2ccccc2)nc1COc1ccc(Cc2ccc(OC(C)C(=O)O)cc2)cc1 (stereo unspecified)    Activity       Toxic
4  CCC(CC)(c1ccc(OCc2coc(-c3ccccc3)n2)cc1)c1ccc(OC(C)C(=O)O)cc1 (stereo unspecified)    Activity       Toxic
5  CCC(CC)(c1ccc(OCc2coc(-c3c(Cl)cccc3Cl)n2)cc1)c1ccc(OC(C)C(=O)O)cc1 (stereo unspecified)    Activity       Toxic

---

Recorded EC50 values for a group of compounds are listed next.
target: Peroxisome proliferator-activated receptor alpha (Homo sapiens, UniProt Q07869); experiment: Transactivation of GAL4-fused human PPARalpa LBD expressed in human HepG2 cells after 20 hrs by luciferase reporter gene assay
VALUE KIND: EC50

In [3]: df
Out[3]:
                                   compound  value_kind  data_value
0  C[C@@H](Oc1ccc(Cc2ccc(OCc3coc(-c4ccccc4)n3)cc2)cc1)C(=O)O        EC50       42 nM
1  C[C@H](Oc1ccc(Cc2ccc(OCc3coc(-c4ccccc4)n3)cc2)cc1)C(=O)O        EC50       46 nM
2  Cc1oc(-c2ccccc2)nc1COc1ccc(Cc2ccc(OC(C)C(=O)O)cc2)cc1 (centres undefined)        EC50      100 nM
3  CC(Oc1ccc(Cc2ccc(OCc3coc(-c4ccccc4)n3)cc2)cc1)C(=O)O (centres undefined)        EC50       39 nM

---

target: Peroxisome proliferator-activated receptor gamma (Homo sapiens, UniProt P37231); experiment: Transactivation of GAL4-fused human PPARgamma LBD expressed in human HepG2 cells after 20 hrs by luciferase reporter gene assay
Sequence (P37231 whole entry, the tested form may be a part): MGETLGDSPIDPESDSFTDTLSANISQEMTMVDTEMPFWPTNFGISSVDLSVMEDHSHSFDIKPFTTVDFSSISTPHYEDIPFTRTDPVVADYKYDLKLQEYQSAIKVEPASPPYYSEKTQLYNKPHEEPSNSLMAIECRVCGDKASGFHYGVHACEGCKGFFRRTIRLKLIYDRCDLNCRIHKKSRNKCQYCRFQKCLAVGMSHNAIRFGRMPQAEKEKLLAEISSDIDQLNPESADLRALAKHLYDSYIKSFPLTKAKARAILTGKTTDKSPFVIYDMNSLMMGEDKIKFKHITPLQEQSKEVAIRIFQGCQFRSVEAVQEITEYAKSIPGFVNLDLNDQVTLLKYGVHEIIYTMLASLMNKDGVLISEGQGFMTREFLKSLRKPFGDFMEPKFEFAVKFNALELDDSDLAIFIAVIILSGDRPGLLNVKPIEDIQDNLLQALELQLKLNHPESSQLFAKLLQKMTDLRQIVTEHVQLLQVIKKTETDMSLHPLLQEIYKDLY
pEC50: −log10 of the molar value.
VALUE KIND: pEC50

>>> print(df.to_string())
                                   molecule  data_value
0  CC(Oc1ccc(Cc2ccc(OCc3coc(-c4ccccc4)n3)cc2)cc1)C(=O)O (centres undefined)        6.54
1  C[C@@H](Oc1ccc(Cc2ccc(OCc3coc(-c4ccccc4)n3)cc2)cc1)C(=O)O        6.55
2  C[C@H](Oc1ccc(Cc2ccc(OCc3coc(-c4ccccc4)n3)cc2)cc1)C(=O)O        6.52
3  Cc1oc(-c2ccccc2)nc1COc1ccc(Cc2ccc(OC(C)C(=O)O)cc2)cc1 (centres undefined)        6.54
